The origin of these recorded values is the supplement of paper PMC7600603.

# Test system: DLD1 NRF2-WT
# assay remarks: drug sensitivity score (DSS) cytotoxicity (DSS score); higher = more toxic; extreme values may be limits of the assay
# measurement context: 72 h; CellTox Green cytotoxicity
quantity kind: drug sensitivity score

>  <compound>
C=CC(=O)N1CC/C(=C\c2ccc(F)c([N+](=O)[O-])c2)C(=O)/C(=C/c2ccc(F)c([N+](=O)[O-])c2)C1

>  <tested system>
DLD1 NRF2-WT

>  <quantity kind>
drug sensitivity score

>  <reported>
21.9

$$$$
>  <compound>
CCN(CC)CCCC(C)Nc1ccnc2cc(Cl)ccc12 (centres undefined)

>  <tested system>
DLD1 NRF2-WT

>  <quantity kind>
drug sensitivity score

>  <reported>
6

$$$$
>  <compound>
C[C@]12C=CC(=O)C=C1CC[C@@H]1[C@@H]2[C@@H](O)C[C@@]2(C)[C@H]1CC[C@]2(O)C(=O)CO

>  <tested system>
DLD1 NRF2-WT

>  <quantity kind>
drug sensitivity score

>  <reported>
0

$$$$
>  <compound>
CN1CCN(c2ccc(C(=O)Nc3n[nH]c4ccc(Cc5cc(F)cc(F)c5)cc34)c(NC3CCOCC3)c2)CC1

>  <tested system>
DLD1 NRF2-WT

>  <quantity kind>
drug sensitivity score

>  <reported>
0

$$$$
